Where no end group is shown, it is not given here.
reported_endpoint: pH 8 Solubility

Some entries whose results are on file:
[
  {
    "sequence_record": "GGEQNPIYWAQYDAWLFTTPLLLLDLALLVDADEGTCG [R11Q; D14Up]",
    "pH 8 Solubility": "Y"
  },
  {
    "sequence_record": "AAEQNPIYWARYAEWLFTTPLLLLELALLVDADEGTCG [D14/25E]",
    "pH 8 Solubility": "N"
  },
  {
    "sequence_record": "DDDEDNPIYWARYAHWLFTTPLLLLHGALLVNANECT [D0 or H2N2]",
    "pH 8 Solubility": "Y"
  },
  {
    "sequence_record": "DDDEDNPIYWARYAHWLFTTPLLLLHGALLVDADECT [2H2 or D2]",
    "pH 8 Solubility": "Y"
  },
  {
    "sequence_record": "ACEQNPIYWARYANWLFTTPLLLLNLALLVDADEGTG [N-pHLIP]",
    "pH 8 Solubility": "Y"
  },
  {
    "sequence_record": "GGEQNPIYWARYADWLFTTPLLLLLDALLVDADEGTCG [D25Down]",
    "pH 8 Solubility": "N"
  }
]

Continue with the next sequence.
[Q] // lookup pH 8 Solubility for GGEQNPIYWARYADWLFTTPLLLDLLALLVDADEGTCG [D25Up]
[A] N
